System: HL-60
Experiment: The compound was tested for [3H]TdR incorporation into DNA in HL-60 cells
Assay type: functional
Details: Homo sapiens, HL-60, 30 min; read-out: ID50 (the source's name)
The compounds listed here are annotated with their pIC50.
A value of pIC50 is the negative decimal logarithm of a concentration given in moles per litre.

Example compounds with recorded pIC50:
O=c1[nH]c(=O)n([C@H]2C[C@H](O)[C@@H](CO)O2)cc1C(F)F : 5.29
O=c1[nH]c(=O)n([C@H]2C[C@H](O)[C@@H](CO)O2)cc1CF : 4.73
O=c1[nH]c(=O)n([C@@H]2O[C@H](CO)[C@@H](O)[C@@H]2F)cc1CF : 3.72

Here is the next item to consider.
Q) // query pIC50 value for entry Cc1cn([C@H]2C[C@H](O)[C@@H](CO)O2)c(=O)[nH]c1=O [DOXRIBTIMINE]
A) 6.21

---

System: HL-60
Assay: The compound was tested for [3H]TdR incorporation into DNA in HL-60 cells
Type: functional
Details: Homo sapiens, HL-60, 30 min; read-out: ID50 (the source's name)
MEASUREMENT_LABEL: pIC50
Kindly note that pIC50 refers to -log10 of the concentration in mol/L and answer with the value alone.

O=c1[nH]c(=O)n([C@H]2C[C@H](O)[C@@H](CO)O2)cc1C(F)(F)F [TRIFLURIDINE] : 4.85

Q) Returns the measured pIC50 for the input compound. Input: Cc1cn([C@@H]2O[C@H](CO)[C@@H](O)[C@@H]2F)c(=O)[nH]c1=O [5-METHYL-2'-FLUOROARAURACIL]
A) 4.70

---

Tested on: HL-60
Test: Growth inhibition against HL-60 after 24 hours incubation period
Assay type: functional
Conditions: Homo sapiens, HL-60, 24 h; read-out: ID50 (the source's name)
Rule for this label: 1 (yes) means IC50 is less than 300 µM; 0 (no) means IC50 is at least 300 µM.

Illustrative cases are given below, each with its answer.
Cc1cn([C@H]2C[C@H](O)[C@@H](CO)O2)c(=O)[nH]c1=O : 0 (no)
CC(=O)OC[C@H]1O[C@@H](n2cc(C)c(=O)[nH]c2=O)[C@@H](F)[C@@H]1OC(C)=O : 0 (no)
Cc1cn([C@@H]2O[C@H](CO)[C@@H](O)[C@@H]2F)c(=O)[nH]c1=O : 1 (yes)
O=c1[nH]c(=O)n([C@H]2C[C@H](O)[C@@H](CO)O2)cc1CF : 1 (yes)
CC(=O)OC[C@H]1O[C@@H](n2cc(CF)c(=O)[nH]c2=O)C[C@@H]1OC(C)=O : 0 (no)

Q) Quick check: does `O=c1[nH]c(=O)n([C@@H]2O[C@H](CO)[C@@H](O)[C@@H]2F)cc1CF` have IC50 under 300 µM?
A) 0 (no)

Q) Is the reported IC50 for `CC(=O)OC[C@H]1O[C@@H](n2cc(CF)c(=O)[nH]c2=O)[C@@H](F)[C@@H]1OC(C)=O` strictly below 300 µM?
A) 0 (no)

Q) Strictly below 300 µM in IC50? `CC(=O)OC[C@H]1O[C@@H](n2cc(C(F)(F)F)c(=O)[nH]c2=O)[C@@H](F)[C@@H]1OC(C)=O`
A) 1 (yes)

Q) Dear colleague, could you confirm whether IC50 of `O=c1[nH]c(=O)n([C@@H]2O[C@H](CO)[C@@H](O)[C@@H]2F)cc1CO` falls below 300 µM? Thanks.
A) 0 (no)

Reference source: ChEMBL document CHEMBL1124187
